test system: normal human bone marrow stromal cells (MSC); test: human bone marrow stromal cell (MSC) proliferation in response to PDGF BB and IL-1α; assay type: cell-based; settings: Table III, PDGF BB 50 ng/ml and IL-1α 10 ng/ml
Recorded IC50, one value per entry.
// return numeric value only (unit: µM, not printed)

Cn1cnc2c1c(=O)n(CCCCCCCCCCCCC1CO1)c(=O)n2C (stereo not drawn)	14

-- ask Quick one: IC50 for C[C@H](CCCn1c(=O)c2c(ncn2C)n(C)c1=O)CCC1OC1(C)C (stereo partly drawn) [Compound 2548S] ?
-- reply 5.9

-- ask Quick one: IC50 for Cn1c(=O)n(CCCCCCCCCC2CO2)c(=O)c2[nH]cnc21 (stereo not drawn) ?
-- reply 3.7
